Test system: hSC-CMs (Cor.4U Cardiomyocytes)
TEST_DETAILS: CardioExcyte 96 impedance and EFP recording (beating rate, base impedance)
Assay type: cell-based, human
CONDITION_INFO: Homo sapiens, Cardiomyocyte; 0.3 µM, 2h; vs baseline before drug (taken as 100%); read-out: Base Imp
We use 90% as the dividing line for activity at 0.3 µM: on or above the line is criterion met, below is criterion not met.

1. O=S(=O)(c1cccc2cnccc12)N1CCCNCC1 :: criterion not met
2. Cn1cc(C2=C(c3ccc(Cl)cc3Cl)C(=O)NC2=O)c2ccccc21 :: criterion met
3. O=c1cc(N2CCOCC2)oc2c(-c3ccccc3)cccc12 :: criterion not met
4. Cc1c[nH]c(-c2cnc(NCCNc3ccc(C#N)cn3)nc2-c2ccc(Cl)cc2Cl)n1 :: criterion met
5. Cn1c(=O)n(-c2ccc(C(C)(C)C#N)cc2)c2c3cc(-c4cnc5ccccc5c4)ccc3ncc21 :: criterion not met

Numbers sourced from paper PMC8242589.
